Tested on: SK-OV-3
Assay remarks: NCI tumour cell line growth inhibition, 48 h
Calls of active or inactive are those of the source. No stated cut-off is given here; in the data, active = GI50 up to about 1.1 µM and inactive = higher.
This listing pairs molecules with measured GI50.

Examples with their reported GI50 follow.
# Molecule, Recorded result
data = [
    ("COC(=O)/C(C#N)=C(\\Nc1ccccc1)N1CCCC1", "> 100 µM (inactive)"),
    ("CSCC1CC(c2ccc(Cl)cc2)=NO1 (stereo not given)", "> 100 µM (inactive)"),
    ("O=C(CCn1[nH]c(=O)c(Cl)c(Cl)c1=O)NO", "> 100 µM (inactive)"),
    ("CC(=O)OCC(=O)O[C@@H]1[C@H]2[C@@H](OC(=O)c3ccccc3)[C@@H](C)C[C@]2(O)[C@H](OC(C)=O)[C@@]2(C)C[C@]1(OC(C)=O)C[C@H]1C(=O)C(C)(C)[C@@H](OC(C)=O)[C@@H]12", "> 25 µM (inactive)"),
    ("C=C1C[C@@H](O)C[C@@]2(C)C[C@@H]3OC(=O)C(=C)[C@@H]3C[C@H]12", "20.7 µM (inactive)"),
    ("CC(C)(C)OC(=O)NCCCCC1NC(=O)[C@@H]2Cc3c([nH]c4ccccc34)C(C3CCCCC3)N2C1=O (stereo not given in full)", "53.7 µM (inactive)"),
    ("CCOC(=N)CC(=O)c1ccccc1", "> 100 µM (inactive)"),
    ("C/C(=N\\OCC(O)CNCCSCc1ccccc1)c1ccccc1Cl (stereo not given)", "19.2 µM (inactive)"),
    ("C=CCCC(=O)N1CCC(C(=O)OCC)C1=O (stereo not given)", "> 100 µM (inactive)"),
]

# query: GI50 of entry CN1C(=O)C(=CNc2ccccc2[N+](=O)[O-])C(=O)N(C)C1=O > 100 µM (inactive)

---

Test system: MCF7
Assay remarks: NCI tumour cell line growth inhibition, 48 h
Activity calls are given as the source filed them. Rule as the data show it: active = GI50 up to about 1.1 µM and inactive = higher.
Below, each entry is listed with its recorded GI50.

# Molecule, GI50
rows = [
    ("O=C1CC2(c3ccccc3)ON=C(c3ccccc3)N2c2ccccc2N1 (stereo not drawn)", "55.7 µM (inactive)"),
    ("O=C(CNc1ccc2c(=S)c3ccccc3[nH]c2c1)Nc1ccccc1-c1ccccc1NC(=O)CNc1ccc2c(=S)c3ccccc3[nH]c2c1", "16.4 µM (inactive)"),
]

Could you tell me which GI50 is on file for C=C1C[C@@H](O)C[C@@]2(C)C[C@@H]3OC(=O)C(=C)[C@@H]3C[C@H]12 ? 3.78 µM (inactive)

# query: GI50 of entry COc1ccc(/C=C2\C[C@H]3[C@@H]4CCC5=C/C(=N/O)CC[C@]5(C)[C@H]4CC[C@]3(C)\C2=N\O)cc1OC 6.87 µM (inactive)

Which GI50 is reported for this molecule? O=C(CC(=O)n1nc(-c2ccccc2)c(/N=N/c2ccc(Cl)cc2)c1-c1ccccc1)Nc1cccc(Cl)c1 > 10 µM (inactive)

Could you tell me which GI50 is on file for O=C(O)C(O)Cc1ccccn1 (stereo not drawn) ? > 100 µM (inactive)

If you can, please state the reported GI50 value of C=C1C(=O)OC2/C=C(\CO)C(OC(C)=O)CC(O)/C(C)=C/C(OC(=O)C(C)CC)C12 (stereo not drawn) . 12.9 µM (inactive)

// query GI50 value for entry O=c1oc2ccccc2c2c(=O)c3ccc(OC/C(=N/O)c4ccc(Cl)cc4)cc3oc12 5.83 µM (inactive)

---

Test system: SK-MEL-28
Assay remarks: NCI tumour cell line growth inhibition, 48 h
The source made the active and inactive calls. No stated cut-off is given here; in the data, active = GI50 up to about 1.1 µM and inactive = higher.
Hi there, use one of these labels in your reply, thanks! T = active, F = inactive

Solved cases below.
# Molecule, Target, Category label
data = [
    ("CCN(CC)CCN1C(=O)CC2[C@@H]3CCc4cc(OC)ccc4C3CC[C@]2(C)C1=O (stereo partly specified)", "SK-MEL-28", "F"),
    ("O=C(NC(=O)c1ccccc1[N+](=O)[O-])Nc1ccc(Oc2ncc(Cl)cn2)c(C(F)(F)F)c1", "SK-MEL-28", "T"),
    ("COC(=O)/C=C1\\C(=O)N(C(C)=O)c2ccccc21", "SK-MEL-28", "F"),
]

Hi, do you know how CN(C)c1ccc(/C=C(\NC(=O)c2ccccc2)C(=O)Nc2ccccc2C(=O)NN2C(=O)CSC2c2ccc(N(C)C)cc2)cc1 (stereo unspecified) came out in this test? F

Write down the call the test reported for this molecule. Item: C#CCNCC(=O)O F

Outcome logged for O=C(O)c1ccc(C(=O)O)c2c(C(=O)O)ccc(C(=O)O)c12 in this assay: F

I would be grateful if you could indicate the recorded call for CC(C)(C)OC(=O)NC1CC=CCC1NC(=O)OC(C)(C)C (stereo unspecified) . F

Please let me know the test result on file for CC(=O)OC1(Sc2ccccc2)CC2[C@H]3COC(C)(C)O[C@H]3CC[C@@]2(C)CC1=O (stereo partly specified) . F

---

Assay read-out log10 GI50; system under study: HCT-15.
Values are log10 of GI50 in µM.

# Molecule, Target, Quantity measured, Recorded result
measured = [
    ("CC(C)(C)OC(=O)NCCCCC1NC(=O)[C@@H]2Cc3c([nH]c4ccccc34)C(C3CCCCC3)N2C1=O (some centres undefined)", "HCT-15", "log10 GI50", 1.56),
    ("O=C(Nc1ccccc1C(=O)NCc1ccccc1)/C(=C/c1ccccc1O)NC(=O)c1ccccc1", "HCT-15", "log10 GI50", 1.39),
    ("Oc1nncc2[nH]c(-c3ccccc3)cc12", "HCT-15", "log10 GI50", 1.66),
]

Identify the measured log10 GI50 of CC(=O)Oc1cccc2c1C(=O)C(Br)(Br)CCC2 for HCT-15. 0.71

Tell me reported log10 GI50 for CC1NC(/C(=C/c2ccccc2O)NC(=O)c2ccccc2)OC1=O (centres undefined) , tested with HCT-15. 1.53

---

The following molecules are listed with their measured GI50 values.
Tested on: RXF 631
Assay remarks: NCI tumour cell line growth inhibition, 48 h
Calls of active or inactive are those of the source. Rule as the data show it: active = GI50 up to about 1.1 µM and inactive = higher.

# Molecule, Target, Recorded result
data = [
    ("C=C1C(=O)OC2/C=C(\\CO)C(OC(C)=O)CC(O)/C(C)=C/C(OC(=O)C(C)CC)C12 (stereo unspecified)", "RXF 631", "33.5 µM (inactive)"),
    ("C[n+]1[se]c2ccccc2c1Cl", "RXF 631", "25.1 µM (inactive)"),
]

Under RXF 631: GI50 value of C=CCCCn1ccc2ccccc21 ? > 100 µM (inactive)

Test system RXF 631; read-out GI50; what value for CSCC1CC(c2ccc(Cl)cc2)=NO1 (stereo unspecified) ? > 100 µM (inactive)

Param readout= GI50; system= RXF 631; entry= CCOC(=O)C(C)(NC(=O)c1ccc(NCc2ccc3nc(NC(=O)c4ccccc4)nc(NC(=O)c4ccccc4)c3c2)cc1)C(=O)OCC ; returns value. 12.2 µM (inactive)

Lab request: please report GI50 under test system RXF 631 for C[Si](C)(C)/C(I)=C/CO 26.4 µM (inactive)

Give the reported GI50 for CCCCCCCCCCCCCCCCCC(=O)OCC(C[As](=O)(O)O)OC(=O)CCCCCCCCCCCCCCCCC (stereo unspecified) (system: RXF 631). 36.1 µM (inactive)

---

Test system: HT-29
Assay remarks: NCI tumour cell line growth inhibition, 48 h
Active and inactive are the calls of the source. Cut-off read from the data, not from the text of the source: active = GI50 up to about 1.1 µM and inactive = higher.
// allowed return values: active, inactive

Solved entries (count: 3):
# Compound, Target, Category label
rows = [
    ("CC(C)(C)[C@@H]1NC(=O)CN1C(=O)OCc1ccccc1", "HT-29", "inactive"),
    ("O=C1c2ccccc2-c2ccc(/N=N/c3c(O)ccc4ccccc34)cc21", "HT-29", "inactive"),
    ("CN(C)c1ccc(/C=C2\\C[C@H]3[C@@H]4CCc5cc(OCCN6CCCC6)ccc5[C@H]4CC[C@]3(C)C2=O)cc1", "HT-29", "active"),
]

Just curious, what result did Cc1ccc(O)c(C2=NNC(c3cccc(Br)c3)C2)c1 (stereo not given) get here? inactive

Hello, I am checking results. What call was entered for O=C(C1OC1c1ccc(Br)cc1O)C12CC3CC(CC(C3)C1)C2 (stereo not given) ? inactive

In this assay, the call recorded for O=c1cc(NNc2cccc(Cl)c2)[nH]c(=O)[nH]1 was what? inactive

Could you check what this test reported for CCOC(=O)CNC(=O)NC12CC3CC(CC(C3)C1)C2 ? inactive

Just curious, what result did Cc1ccnc2nc(N)ccc12 get here? inactive

Record lookup: outcome of this test for CC(=O)OCC1OC(Oc2cc(C)c(O)cc2C/C=C(\C)CC/C=C(\C)CC(=O)CC(C)C)C(O)C(OC(C)=O)C1OC(C)=O (stereo not given) ? inactive

Given Cc1ccccc1N1C(N)=C(C#N)C(C#N)(C#N)C1c1ccccc1 (stereo not given) , state the outcome it received in this test. inactive
